B1: HDV Ribozyme (parent)
chain: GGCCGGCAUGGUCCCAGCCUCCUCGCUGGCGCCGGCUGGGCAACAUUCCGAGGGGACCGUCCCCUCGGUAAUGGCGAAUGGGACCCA

Variants of: B1
experimentalDetails: self-cleavage, relative activity (ratio to wild type); higher = more cleavage; co-transcriptional
Values of self-cleavage greater than or equal to 0.7 map to 1 (yes); values below map to 0 (no).

Assess whether reported self-cleavage for G2C A77C sits at 0.7 or higher.
0 (no)

Also, C48A U69C please.
1 (yes)

Also, C21A C62A please.
0 (no)

Also, G10A A78G please.
0 (no)

Also, G2C C26G please.
0 (no)

Also, G1A C75G please.
0 (no)

Also, C22A U27C please.
0 (no)

Also, U27A C85G please.
1 (yes)

Also, C24G U27A please.
0 (no)

Also, G50U G68U please.
0 (no)

Also, G40U A87G please.
0 (no)

Also, C41G C86U please.
0 (no)

Also, G11A G67A please.
0 (no)

Also, C58G G68U please.
1 (yes)

Also, G40A C66A please.
1 (yes)

Also, G17A C75G please.
0 (no)

Also, C13A U23A please.
0 (no)

Also, G17A C30U please.
1 (yes)

Also, U60A C64G please.
1 (yes)

Also, C4U U12C please.
0 (no)

Also, C19G C36U please.
0 (no)

Data credit: the RNAGym collection of RNA variant scans (doi:10.7554/elife.80360)
